Test method notes: Osmolality of LNP formulation
Format: physicochemical
Cond: LNP formulation in 20 mM Tris 8% Sucrose storage buffer
Excerpt: LNPs comprising ionizable lipids described herein were formulated according to Table 2 and the following general procedure.
Measurement name: Osmolality (mOsm/kg)

{"Compound": "CCCCCCCCC(CCCCCCCC)OC(=O)CCCCCCCN(CCCCCCC(C(=O)OCCCCCC)C(=O)OCCCCCC)CCCNC(=O)CC [Compound M5]", "Measurement name": "Osmolality (mOsm/kg)", "Uom": "mOsm/kg", "Assay value": 320}
{"Compound": "CCCCCCCCC(CCCCCCCC)OC(=O)CCCCCCCN(CCCCCCC(C(=O)OCCCCCC)C(=O)OCCCCCC)CCCNC(C)=O [Compound M4]", "Measurement name": "Osmolality (mOsm/kg)", "Uom": "mOsm/kg", "Assay value": 321}
{"Compound": "CCCCCCCCC(CCCCCCCC)OC(=O)CCCCCCCN(CCO)CCCCCCCC(=O)OCCC(CCCC)CCCC [Compound L6, reference compound]", "Measurement name": "Osmolality (mOsm/kg)", "Uom": "mOsm/kg", "Assay value": 321}

----------
Test method notes: LNP particle size and polydispersity index (PDI)
Assay type: physicochemical
Cond: LNP lipid:PEG-1:DSPC:Cholesterol 48:2:11:39, hEPO mRNA, 20 mM Tris 8% Sucrose pH 7.4

{"Compound": "CCCCCCCCC(CCCCCCCC)OC(=O)CCCCCCCN(CCCCCCCC(=O)OCCC(CCCC)CCCC)CCCNS(=O)(=O)CC [Compound L2, reference compound]", "Size (nm)": 60.7}
{"Compound": "CCCCCCCCC(CCCCCCCC)OC(=O)CCCCCCCN(CCCCCCC(C(=O)OCCCCCC)C(=O)OCCCCCC)CCCNC(=O)C1CC1", "Size (nm)": 104.9}
{"Compound": "CCCCCCCCC(CCCCCCCC)OC(=O)CCCCCCCN(CCCCCCC(C(=O)OCCCCCC)C(=O)OCCCCCC)CCCNC(C)=O", "Size (nm)": 68.7}
{"Compound": "CCCCCCCCC(CCCCCCCC)OC(=O)CCCCCCCN(CCO)CCCCCCCC(=O)OCCC(CCCC)CCCC [Compound L6, reference compound]", "Size (nm)": 58.2}
{"Compound": "CCCCCCCCOC(=O)C(CCCCCCN(CCO)CCCCCCCC(=O)OC(CCCCCCCC)CCCCCCCC)C(=O)OCCCCCCCC", "Size (nm)": 58.0}
{"Compound": "CCCCCCCCC(CCCCCCCC)OC(=O)CCCCCCCN(CCCCCCC(C(=O)OCCCCCC)C(=O)OCCCCCC)CCCNC(=O)CC", "Size (nm)": 126.7}

----------
Test method notes: Endotoxin content of LNP formulation
Cond: LNP lipid:PEG-1:DSPC:Cholesterol 48:2:11:39, hEPO mRNA

{"Molecule": "CCCCCCCCC(CCCCCCCC)OC(=O)CCCCCCCN(CCCCCCC(C(=O)OCCCCCC)C(=O)OCCCCCC)CCCNC(=O)C1CC1 [Compound M6]", "Uom": "EU/mL", "Result comparator": "<", "Endotoxin (EU/mL)": 2}
{"Molecule": "CCCCCCCCC(CCCCCCCC)OC(=O)CCCCCCCN(CCCCCCC(C(=O)OCCCCCC)C(=O)OCCCCCC)CCCNc1c(NC)c(=O)c1=O [Compound M3]", "Uom": "EU/mL", "Result comparator": "=", "Endotoxin (EU/mL)": 2}
{"Molecule": "CCCCCCCCC(CCCCCCCC)OC(=O)CCCCCCCN(CCCCCCC(C(=O)OCCCCCC)C(=O)OCCCCCC)CCCNC(=O)CC [Compound M5]", "Uom": "EU/mL", "Result comparator": "=", "Endotoxin (EU/mL)": 2.7}
{"Molecule": "CCCCCCCCC(CCCCCCCC)OC(=O)CCCCCCCN(CCO)CCCCCCCC(=O)OCCC(CCCC)CCCC [Compound L6, reference compound]", "Uom": "EU/mL", "Result comparator": "=", "Endotoxin (EU/mL)": 2.3}
{"Molecule": "CCCCCCCCC(CCCCCCCC)OC(=O)CCCCCCCN(CCO)CCCCCCC(C(=O)OCCCCCC)C(=O)OCCCCCC [Compound M1]", "Uom": "EU/mL", "Result comparator": "=", "Endotoxin (EU/mL)": 2.4}
{"Molecule": "CCCCCCCCC(CCCCCCCC)OC(=O)CCCCCCCN(CCCCCCC(C(=O)OCCCCCC)C(=O)OCCCCCC)CCCNC(C)=O [Compound M4]", "Uom": "EU/mL", "Result comparator": "=", "Endotoxin (EU/mL)": 2.6}
{"Molecule": "CCCCCCCCCOC(=O)CCCCCCCN(CCO)CCCCCCCC(=O)OC(CCCCCCCC)CCCCCCCC [Compound L4, reference compound]", "Uom": "EU/mL", "Result comparator": "=", "Endotoxin (EU/mL)": 2.3}
{"Molecule": "CCCCCCCCC(CC)OC(=O)CCCCCCCN(CCCCCCCC(=O)OC(CCCCCCCC)CCCCCCCC)CCCNc1c(NC)c(=O)c1=O (centres unmarked) [Compound L5, reference compound]", "Uom": "EU/mL", "Result comparator": "=", "Endotoxin (EU/mL)": 2}

----------
Test method notes: LNP particle size and polydispersity index (PDI)
Type: physicochemical
Cond: LNP lipid:PEG-1:DSPC:Cholesterol 48:2:11:39, hEPO mRNA, 20 mM Tris 8% Sucrose pH 7.4
PDI by entry:

{"Compound": "CCCCCCCCC(CCCCCCCC)OC(=O)CCCCCCCN(CCO)CCCCCCCC(=O)OCCC(CCCC)CCCC [Compound L6, reference compound]", "PDI": 0.166}
{"Compound": "CCCCCCCCC(CCCCCCCC)OC(=O)CCCCCCCN(CCCCCCC(C(=O)OCCCCCC)C(=O)OCCCCCC)CCCNC(=O)C1CC1", "PDI": 0.418}
{"Compound": "CCCCCCCCOC(=O)C(CCCCCCN(CCO)CCCCCCCC(=O)OC(CCCCCCCC)CCCCCCCC)C(=O)OCCCCCCCC", "PDI": 0.186}
{"Compound": "CCCCCCCCC(CCCCCCCC)OC(=O)CCCCCCCN(CCCCCCC(C(=O)OCCCCCC)C(=O)OCCCCCC)CCCNC(=O)CC", "PDI": 0.496}
{"Compound": "CCCCCCCCC(CCCCCCCC)OC(=O)CCCCCCCN(CCCCCCCC(=O)OCCC(CCCC)CCCC)CCCNS(=O)(=O)CC [Compound L2, reference compound]", "PDI": 0.177}
{"Compound": "CCCCCCCCC(CCCCCCCC)OC(=O)CCCCCCCN(CCCCCCC(C(=O)OCCCCCC)C(=O)OCCCCCC)CCCNC(C)=O", "PDI": 0.099}

----------
Test method notes: pH of LNP formulation
Type: physicochemical
Cond: LNP formulation in 20 mM Tris 8% Sucrose storage buffer
Measured pH by item

{"Compound": "CCCCCCCCC(CCCCCCCC)OC(=O)CCCCCCCN(CCCCCCC(C(=O)OCCCCCC)C(=O)OCCCCCC)CCCNC(=O)CC [Compound M5]", "pH": 6.962}
{"Compound": "CCCCCCCCCOC(=O)CCCCCCCN(CCO)CCCCCCCC(=O)OC(CCCCCCCC)CCCCCCCC [Compound L4, reference compound]", "pH": 7.444}
{"Compound": "CCCCCCCCC(CCCCCCCC)OC(=O)CCCCCCCN(CCO)CCCCCCCC(=O)OCCC(CCCC)CCCC [Compound L6, reference compound]", "pH": 7.468}
{"Compound": "CCCCCCCCC(CCCCCCCC)OC(=O)CCCCCCCN(CCCCCCC(C(=O)OCCCCCC)C(=O)OCCCCCC)CCCNc1c(NC)c(=O)c1=O [Compound M3]", "pH": 7.155}
{"Compound": "CCCCCCCCC(CC)OC(=O)CCCCCCCN(CCCCCCCC(=O)OC(CCCCCCCC)CCCCCCCC)CCCNc1c(NC)c(=O)c1=O (centres unmarked) [Compound L5, reference compound]", "pH": 7.456}
{"Compound": "CCCCCCCCC(CCCCCCCC)OC(=O)CCCCCCCN(CCCCCCC(C(=O)OCCCCCC)C(=O)OCCCCCC)CCCNC(C)=O [Compound M4]", "pH": 7.450}
{"Compound": "CCCCCCCCC(CCCCCCCC)OC(=O)CCCCCCCN(CCCCCCC(C(=O)OCCCCCC)C(=O)OCCCCCC)CCCNC(=O)C1CC1 [Compound M6]", "pH": 7.450}
{"Compound": "CCCCCCCCC(CCCCCCCC)OC(=O)CCCCCCCN(CCO)CCCCCCC(C(=O)OCCCCCC)C(=O)OCCCCCC [Compound M1]", "pH": 7.452}

----------
Test method notes: mRNA encapsulation by the LNP (% EE, total mRNA in TX)
Assay type: physicochemical
Cond: LNP lipid:PEG-1:DSPC:Cholesterol 48:2:11:39, hEPO mRNA
# maps each entry to its % EE

{"Compound": "CCCCCCCCOC(=O)C(CCCCCCN(CCO)CCCCCCCC(=O)OC(CCCCCCCC)CCCCCCCC)C(=O)OCCCCCCCC", "Uom": "%", "% EE": 97.9}
{"Compound": "CCCCCCCCC(CCCCCCCC)OC(=O)CCCCCCCN(CCO)CCCCCCCC(=O)OCCC(CCCC)CCCC [Compound L6, reference compound]", "Uom": "%", "% EE": 96.9}
{"Compound": "CCCCCCCCC(CCCCCCCC)OC(=O)CCCCCCCN(CCCCCCC(C(=O)OCCCCCC)C(=O)OCCCCCC)CCCNC(C)=O", "Uom": "%", "% EE": 92.2}
{"Compound": "CCCCCCCCC(CCCCCCCC)OC(=O)CCCCCCCN(CCCCCCCC(=O)OCCC(CCCC)CCCC)CCCNS(=O)(=O)CC [Compound L2, reference compound]", "Uom": "%", "% EE": 95.8}
{"Compound": "CCCCCCCCC(CCCCCCCC)OC(=O)CCCCCCCN(CCCCCCC(C(=O)OCCCCCC)C(=O)OCCCCCC)CCCNC(=O)CC", "Uom": "%", "% EE": 69.8}
{"Compound": "CCCCCCCCC(CCCCCCCC)OC(=O)CCCCCCCN(CCCCCCC(C(=O)OCCCCCC)C(=O)OCCCCCC)CCCNC(=O)C1CC1", "Uom": "%", "% EE": 67.8}

Just for reference, patent US20260199239A1 is where these values come from.
